Source: patent US20100092526A1

# Tested on: Stenotrophomonas maltophilia
# experimental.protocol: MIC/MBC against CF isolates (CLSI, alamar blue)
# experimental.parameters: Stenotrophomonas maltophilia, CF Stenotrophomonas isolate Steno 8
property: MIC (µg/mL)

>>> recorded_value("CC(C)(O/N=C(\\C(=O)N[C@@H]1C(=O)N2C(C(=O)[O-])=C(C[n+]3ccccc3)CS[C@H]12)c1csc(N)n1)C(=O)O [Ceftazidime]")
16
>>> recorded_value("C[C@H]1COc2c(N3CCN(C)CC3)c(F)cc3c(=O)c(C(=O)O)cn1c23 [Levofloxacin]")
2

* * *

# Test system: Burkholderia cenocepacia
# experimental.protocol: MIC/MBC against CF isolates (CLSI, alamar blue)
# experimental.parameters: Burkholderia cenocepacia, CF Burkholderia isolate NB29
property: MBC

>>> recorded_value("CO/N=C(\\C(=O)N[C@@H]1C(=O)N2C(C(=O)[O-])=C(C[N+]3(C)CCCC3)CS[C@H]12)c1csc(N)n1 [Cefepime]")
"> 32 µg/mL"
>>> recorded_value("C[C@H]1COc2c(N3CCN(C)CC3)c(F)cc3c(=O)c(C(=O)O)cn1c23")
"4 µg/mL"
>>> recorded_value("NC[C@H]1O[C@H](O[C@H]2[C@H](O)[C@@H](O[C@H]3O[C@H](CO)[C@@H](O)[C@H](N)[C@H]3O)[C@H](N)C[C@@H]2N)[C@H](N)C[C@@H]1O")
"> 32 µg/mL"
>>> recorded_value("CO[C@@]1(NC(=O)Cc2cccs2)C(=O)N2C(C(=O)O)=C(COC(N)=O)CS[C@@H]21")
"> 256 µg/mL"
>>> recorded_value("CC(C)(O/N=C(\\C(=O)N[C@@H]1C(=O)N2C(C(=O)[O-])=C(C[n+]3ccccc3)CS[C@H]12)c1csc(N)n1)C(=O)O")
"> 32 µg/mL"

* * *

# Tested on: Stenotrophomonas maltophilia
# experimental.protocol: MIC/MBC against CF isolates (CLSI, alamar blue)
# experimental.parameters: Stenotrophomonas maltophilia, CF Stenotrophomonas isolate NB44
property: MIC

>>> recorded_value("CO/N=C(\\C(=O)N[C@@H]1C(=O)N2C(C(=O)[O-])=C(C[N+]3(C)CCCC3)CS[C@H]12)c1csc(N)n1 [Cefepime]")
"> 32 mg/L"
>>> recorded_value("NC[C@H]1O[C@H](O[C@H]2[C@H](O)[C@@H](O[C@H]3O[C@H](CO)[C@@H](O)[C@H](N)[C@H]3O)[C@H](N)C[C@@H]2N)[C@H](N)C[C@@H]1O [Tobramycin]")
"> 32 mg/L"
>>> recorded_value("CC(C)(O/N=C(\\C(=O)N[C@@H]1C(=O)N2C(C(=O)[O-])=C(C[n+]3ccccc3)CS[C@H]12)c1csc(N)n1)C(=O)O [Ceftazidime]")
"> 32 mg/L"

* * *

# Tested on: Acinetobacter baumannii
# experimental.protocol: MIC/MBC against clinical isolates (CLSI, alamar blue)
# experimental.parameters: Acinetobacter baumannii, Acinetobacter isolate NB35
property: MIC

>>> recorded_value("CO[C@@]1(NC(=O)Cc2cccs2)C(=O)N2C(C(=O)O)=C(COC(N)=O)CS[C@@H]21 [Cefoxitin]")
"> 256 µg/mL"
>>> recorded_value("C[C@H]1COc2c(N3CCN(C)CC3)c(F)cc3c(=O)c(C(=O)O)cn1c23 [Levofloxacin]")
"> 16 µg/mL"
>>> recorded_value("CC(C)(O/N=C(\\C(=O)N[C@@H]1C(=O)N2C(C(=O)[O-])=C(C[n+]3ccccc3)CS[C@H]12)c1csc(N)n1)C(=O)O [Ceftazidime]")
"> 32 µg/mL"

* * *

# Tested on: Stenotrophomonas maltophilia
# experimental.protocol: MIC/MBC against CF isolates (CLSI, alamar blue)
# experimental.parameters: Stenotrophomonas maltophilia, CF Stenotrophomonas isolate Steno 8
# MIC per entry
property: MIC

>>> recorded_value("NC[C@H]1O[C@H](O[C@H]2[C@H](O)[C@@H](O[C@H]3O[C@H](CO)[C@@H](O)[C@H](N)[C@H]3O)[C@H](N)C[C@@H]2N)[C@H](N)C[C@@H]1O [Tobramycin]")
"> 32 µg/mL"
>>> recorded_value("CO/N=C(\\C(=O)N[C@@H]1C(=O)N2C(C(=O)[O-])=C(C[N+]3(C)CCCC3)CS[C@H]12)c1csc(N)n1 [Cefepime]")
"> 32 µg/mL"
>>> recorded_value("CO[C@@]1(NC(=O)Cc2cccs2)C(=O)N2C(C(=O)O)=C(COC(N)=O)CS[C@@H]21 [Cefoxitin]")
"> 256 µg/mL"
